The following compounds are listed with their measured half-life at 2 µM values.
Assay: Mouse Liver Microsome Metabolic Stability Assay
Format: in vitro ADME
Conditions: pH 7.4, Mouse liver microsomes, 37° C., NADPH, read-out: t½

Ask: Can you look up the measured half-life at 2 µM of `Cc1c(-c2ccn(C)n2)cn2nc(-c3nccn3C)nc(Nc3cc(OC(F)F)ccn3)c12` for me?
Result: > 10 min

Ask: Entry `Cc1ccnc(Nc2nc(-c3nccn3C)nn3cc(-c4ccn(C5CC5)n4)c(C)c23)c1` please
Result: > 10 min

Ask: Entry `COc1ccc(Nc2nc(-c3nccn3C)nn3cc(-c4ccn(C)n4)c(C)c23)nc1` please
Result: > 10 min

====

System: Erk1/2 phosphorylation
Assay: Erk1/2 Phosphorylation Assay (western blot), Panc-1
Assay type: cell-based, human
Conditions: at 10 μM, * = activation
reportedMetric: % inh of Erk1/2 phosphorylation in Panc-1

Answered cases to consult:
[
  {
    "molecule": "COc1ccnc(Nc2nc(-c3nccn3C)nn3cc(-c4cccnc4)c(C)c23)n1 [Compound 158]",
    "reading": "A (1-25% inhibition)"
  },
  {
    "molecule": "Cc1c(-c2ccn(C)n2)cn2nc(-c3nccn3C)nc(Nc3cc(C(C)(C)O)ccn3)c12 [Compound 240]",
    "reading": "A* (1-25% activation)"
  },
  {
    "molecule": "CCOc1ccc(Nc2nc(-c3nccn3C)nn3cc(-c4ccn(C)n4)c(C)c23)nc1 [Compound 229]",
    "reading": "A (1-25% inhibition)"
  },
  {
    "molecule": "COc1ccnc(Nc2nc(-c3nccn3C)nn3cc(-c4ccn(C)n4)c(C(=O)NCC(F)(F)F)c23)c1 [Compound 174]",
    "reading": "D* (85-100% activation)"
  },
  {
    "molecule": "COCCO[C@H]1C[C@H](Nc2nc(-c3nccn3C)nn3cc(-c4ccn(C(C)C)n4)c(C)c23)C1 [Compound 92]",
    "reading": "A* (1-25% activation)"
  },
  {
    "molecule": "CO[C@H]1CC[C@H](Nc2nc(-c3nccn3C)nn3cc(-c4ccn(C)n4)c(C(=O)NC4CC4)c23)C1 (racemic) [Compound 182]",
    "reading": "A* (1-25% activation)"
  }
]

Ask: Can you look up the measured % inh of Erk1/2 phosphorylation in Panc-1 of Cc1c(-c2ccn(C3CC3)n2)cn2nc(-c3nccn3C)nc(O)c12 [Compound 134] for me?
Result: B (26-49% inhibition)

Ask: Entry CO[C@H]1C[C@@H](Nc2nc(-c3nccn3C)nn3cc(-c4cccnc4)c(-c4ccccc4)c23)C1 [Compound 191] please
Result: D* (85-100% activation)

Ask: Entry Cc1c(-c2ccn(C)n2)cn2nc(-c3nccn3C)nc(Nc3cc(-c4ccccn4)[nH]n3)c12 [Compound 265] please
Result: A* (1-25% activation)

Ask: Entry Cc1c(-c2ccn(C(C)C)n2)cn2nc(-c3nccn3C)nc(Nc3cnccn3)c12 [Compound 62] please
Result: A (1-25% inhibition)

Ask: Entry COc1ccc(N(C)c2nc(-c3nccn3C)nn3cc(-c4ccn(C)n4)c(C)c23)nc1 [Compound 225] please
Result: B (26-49% inhibition)

Ask: Entry Cc1c(-c2ccn(C(C)C)n2)cn2nc(-c3nccn3C)nc(Nc3cnn(C(C)C)n3)c12 [Compound 77] please
Result: D* (85-100% activation)

Ask: Entry COCCO[C@H]1C[C@H](Nc2nc(-c3nccn3C)nn3cc(-c4cccc(OC)c4F)c(-c4ccccc4)c23)C1 [Compound 44] please
Result: B (26-49% inhibition)

Ask: Entry Cc1c(-c2ccn(C(C)C)n2)cn2nc(-c3nccn3C)nc(Nc3cc4n(n3)CCO4)c12 [Compound 91] please
Result: D* (85-100% activation)

====

The following compounds are listed with their measured inhibition at 20 µM values.
Target: Rac-1 (Homo sapiens)
Construct: made in house
Experiment: Ras GTP Binding Domain Inhibition Assay (Ras Superfamily Assay)
Conditions: read-out: Rac-1: % inh.

Answered cases to consult:
[
  {
    "compound": "Cc1c(-c2ccn(C(C)C)n2)cn2nc(-c3nccn3C)nc(Nc3nc(C4CC4)no3)c12",
    "inhibition at 20 µM": "1 to 25%"
  },
  {
    "compound": "Cc1c(-c2ccn(C3CC3)n2)cn2nc(-c3nccn3C)nc(Nc3cc(OCCN(C)C)ccn3)c12",
    "inhibition at 20 µM": "0%"
  },
  {
    "compound": "COC1CCCN(c2nc(-c3nccn3C)nn3cc(-c4ccn(C(C)C)n4)c(-c4ccccc4)c23)C1 (racemic)",
    "inhibition at 20 µM": "0%"
  },
  {
    "compound": "COc1cccc(-c2cn3nc(-c4nccn4C)nc(N[C@@H]4CC[C@H](OC)C4)c3c2-c2ccccc2)c1Cl (racemic)",
    "inhibition at 20 µM": "0%"
  },
  {
    "compound": "COc1ccnc(Nc2nc(-c3nccn3C)nn3cc(-c4cccnc4)c(C)c23)c1",
    "inhibition at 20 µM": "76 to 100%"
  }
]

Ask: Can you look up the measured inhibition at 20 µM of `Cc1c(-c2ccn(C3CC3)n2)cn2nc(-c3nccn3C)nc(Nc3cc(OCCCN(C)C)ccn3)c12` for me?
Result: 0%

Ask: Entry `Cc1c(-c2ccn(C)n2)cn2nc(-c3nccn3C)nc(Nc3ccc(N4CCOCC4)cn3)c12` please
Result: 76 to 100%

====

Tested on: KRas G12D mutant
Assay: Ras GTP Binding Domain Inhibition Assay (Ras Superfamily Assay)
Conditions: 20 μM compound, without SOS
Description: Biological Example 3: Ras GTP Binding Domain Inhibition Assay The assays described in Example 3 are collectively referred to as the “Ras Superfamily Assay” throughout this application. […] The small GTPases proteins: KRas wild type. KRas Q61H mutant, KRas G12C mutant, KRas G12D mutants, Rac-1, and Rho-A were expressed as His-tagged proteins. In addition, the Guanosine nucleotide Exchange Factor (GEF) Sos protein (residues 556-1049) was expressed as a His-tagged protein. […]
reportedMetric: KRas G12D mutant: % inh.

[
  {
    "compound": "COc1cc(Nc2nc(-c3ccccn3)nn3cc(-c4ccn(C(C)C)n4)c(C)c23)ncn1 [Compound 13]",
    "reportedMetric": "KRas G12D mutant: % inh.",
    "reading": "A (A = 1-25% inhibition)"
  },
  {
    "compound": "COc1cccc(-c2cn3nc(-c4nccn4C)nc(N[C@H]4C[C@H](OC)C4)c3c2-c2ccn(C)n2)c1F [Compound 47]",
    "reportedMetric": "KRas G12D mutant: % inh.",
    "reading": "A (A = 1-25% inhibition)"
  }
]

====

The following compounds are listed with their measured KRas wild type: % inh. values.
System: KRas wild type
Assay: Ras GTP Binding Domain Inhibition Assay (Ras Superfamily Assay)
Conditions: 20 μM compound, without SOS
From the text: Biological Example 3: Ras GTP Binding Domain Inhibition Assay The assays described in Example 3 are collectively referred to as the “Ras Superfamily Assay” throughout this application. […] The small GTPases proteins: KRas wild type. KRas Q61H mutant, KRas G12C mutant, KRas G12D mutants, Rac-1, and Rho-A were expressed as His-tagged proteins. In addition, the Guanosine nucleotide Exchange Factor (GEF) Sos protein (residues 556-1049) was expressed as a His-tagged protein. […]

[
  {
    "compound": "COC[C@@H]1CC[C@@H]1CNc1nc(-c2ccccn2)nn2cc(-c3ccn(C(C)C)n3)c(C)c12 (racemic) [Compound 11]",
    "reportedMetric": "KRas wild type: % inh.",
    "reading": "0 (0 = 0% inhibition)"
  }
]

Ask: Item CO[C@H]1CC[C@@H](Nc2nc(-c3ccccn3)nn3cc(-c4ccn(C(C)C)n4)c(-c4ccccc4)c23)C1 (racemic) [Compound 24] with KRas wild type - KRas wild type: % inh.?
Result: 0 (0 = 0% inhibition)

====

Target: Rac-1 (Homo sapiens)
Construct: made in house
Assay: Ras GTP Binding Domain Inhibition Assay (Ras Superfamily Assay)
Settings: read-out: Rac-1: % inh.
reportedMetric: inhibition at 20 µM

Answered cases to consult:
[
  {
    "compound": "Cc1c(-c2ccn(C(C)C)n2)cn2nc(-c3nccn3C)nc(Nc3nnc(C4CC4)[nH]3)c12",
    "reading": "76 to 100%"
  },
  {
    "compound": "COCCO[C@H]1C[C@H](Nc2nc(-c3nccn3C)nn3cc(-c4cccnc4)c(C)c23)C1",
    "reading": "50 to 75%"
  },
  {
    "compound": "COc1cncnc1Nc1nc(-c2nccn2C)nn2cc(-c3ccn(C)n3)c(C)c12",
    "reading": "76 to 100%"
  }
]

Ask: Can you look up the measured inhibition at 20 µM of `Cc1c(-c2ccn(C(C)C)n2)cn2nc(-c3nccn3C)nc(Nc3ncco3)c12` for me?
Result: 1 to 25%

Ask: Entry CO[C@H]1CC[C@H](Nc2nc(-c3nccn3C)nn3cc(-c4ccn(C)n4)c(C(=O)NC4CC4)c23)C1 (racemic) please
Result: 1 to 25%

Ask: Entry `Cc1c(-c2ccn(C(C)C)n2)cn2nc(-c3nccn3C)nc(Nc3cc(OCCO)ncn3)c12` please
Result: 76 to 100%

Ask: Entry `CO[C@H]1C[C@H](Nc2nc(-c3nccn3C)nn3cc(-c4cccc(OCCN)c4)c(-c4ccccc4)c23)C1` please
Result: 1 to 25%

Value source: patent US12459951B2
